Assignment: determine reported IC50 for the given binders.
- Target or system: NGF (nerve growth factor) (Homo sapiens, UniProt P01138 P01138:122-241)
- Sequence (P01138 122-241, one chain of several): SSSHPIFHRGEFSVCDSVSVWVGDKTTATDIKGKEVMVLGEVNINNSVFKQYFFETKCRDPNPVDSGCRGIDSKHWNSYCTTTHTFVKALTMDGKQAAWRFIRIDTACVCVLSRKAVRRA
- Test protocol: cell_activity; neurite; TF-1 <0.1
- Particulars: tags: R&D Systems; chain copies: 2
Give bare numbers, in nM.

Some solved cases for reference:
Binder | Value measured
GGGUCCUGUGGAAGAGUUUCCGUCUCGUCCACUGUUACCC (ssRNA, 2'-OMe G1-3,C38-40; other C/U 2'-F, G 2'-OH, dA; 5',3' idT) [SEQ ID NO: 89(1)] | 0.246
GGGUCCUGCUCAAGAGUUUCCGUCUCGUGGGCUGUUACCC (ssRNA, 2'-OMe G1-3,C38-40; other C/U 2'-F, G 2'-OH, dA; 5',3' idT) [SEQ ID NO: 87(1)] | 0.173
GGGUCCUGUUCAAGAGUUUCCGUCUCGUGAACUGUUACCC (ssRNA, 2'-OMe G1-3,U4,C6,G14,G16,C21,G22,U23,C26,G27,U28,C32,U35,C38-40; other C/U 2'-F, G 2'-OH, dA; 5',3' idT) [SEQ ID NO: 88(3)] | 0.106
GGGUCCUGUUCAAGAGUUUCCGUCUCGUGAACUGUUACCC (ssRNA, as 88(3) plus 2'-OMe U9,U10,C11,G29) [SEQ ID NO: 88(4)] | 0.111
GGGUCCUGCUCAAGAGUUUCCGUCUCGUGGGCUGUUACCC (ssRNA, 2'-OMe G1-3,U4,C6,G14,G16,C21,G22,U23,C26,G27,U28,C32,U35,C38-40; other C/U 2'-F, G 2'-OH, dA; 5',3' idT) [SEQ ID NO: 87(2)] | 0.107
GGGUCCUGCUCAAGAGUUUCCGUCUCGUGGGCUGUUACCC (ssRNA, as 87(2) plus 2'-OMe C9,U10,C11,G29-31) [SEQ ID NO: 87(4)] | 0.113

For every listed record, write down its IC50.
1. GGGUCCUGUGGAAGAGUUUCCGUCUCGUCCACUGUUACCC (ssRNA, as 89(2) plus 2'-OMe G10,G11) [SEQ ID NO: 89(3)]
2. GGGUCCUGUUCAAGAGUUUCCGUCUCGUGAACUGUUACCC (ssRNA, 2'-OMe C38-40; other C/U 2'-F, G 2'-OH, dA; 5',3' idT) [SEQ ID NO: 88(1)]

Completion:
1: 0.122; 2: 0.241
